- test.target: HUVEC IL-4 receptor (IL-4Rα/γ-like receptor component) (human, UniProt P24394 26-825)
- Sequence (P24394 26-825): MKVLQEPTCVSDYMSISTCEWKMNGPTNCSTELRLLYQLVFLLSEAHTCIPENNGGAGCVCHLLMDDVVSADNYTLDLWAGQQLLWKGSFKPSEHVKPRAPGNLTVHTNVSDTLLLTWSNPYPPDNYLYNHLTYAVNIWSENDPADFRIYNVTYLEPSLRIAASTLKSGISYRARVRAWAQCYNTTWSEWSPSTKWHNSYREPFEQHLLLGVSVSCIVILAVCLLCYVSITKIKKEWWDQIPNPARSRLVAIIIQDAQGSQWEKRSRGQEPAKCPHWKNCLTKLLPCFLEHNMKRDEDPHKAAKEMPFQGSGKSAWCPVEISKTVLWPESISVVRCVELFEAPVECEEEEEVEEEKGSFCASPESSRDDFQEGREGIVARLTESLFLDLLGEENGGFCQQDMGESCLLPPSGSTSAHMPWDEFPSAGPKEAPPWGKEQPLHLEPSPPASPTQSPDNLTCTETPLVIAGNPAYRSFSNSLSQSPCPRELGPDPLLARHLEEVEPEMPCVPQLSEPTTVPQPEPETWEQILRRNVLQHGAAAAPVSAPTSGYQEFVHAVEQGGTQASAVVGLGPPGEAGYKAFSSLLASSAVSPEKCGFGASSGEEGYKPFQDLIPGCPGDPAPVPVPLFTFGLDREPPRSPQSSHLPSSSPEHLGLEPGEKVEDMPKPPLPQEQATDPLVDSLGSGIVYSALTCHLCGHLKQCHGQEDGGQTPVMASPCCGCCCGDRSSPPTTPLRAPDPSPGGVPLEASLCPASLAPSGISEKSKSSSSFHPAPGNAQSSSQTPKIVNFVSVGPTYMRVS
- assay.info: cell-based or functional assay
Below: a set of entries, each annotated with reported HUVEC, IL-6 secretion, EC50, pM.
Respond numerically; units are pM and should not be typed.

binder="IL-4 mutein R121P (ligand) HKCDITLQEIIKTLNSLTEQKTLCTELTVTDIFAASKNTTEKETFCRAATVLRQFYSHHEKDTRCLGATAQQFHRHKQLIRFLKRLDRNLWGLAGLNSCPVKEANQSTLENFLERLKTIMPEKYSKCSS" endpoint_label="HUVEC, IL-6 secretion, EC50, pM" unit=pM quantitative_readout=650
binder="IL-4 mutein R121N (ligand) HKCDITLQEIIKTLNSLTEQKTLCTELTVTDIFAASKNTTEKETFCRAATVLRQFYSHHEKDTRCLGATAQQFHRHKQLIRFLKRLDRNLWGLAGLNSCPVKEANQSTLENFLERLKTIMNEKYSKCSS" endpoint_label="HUVEC, IL-6 secretion, EC50, pM" unit=pM quantitative_readout=35
binder="IL-4 mutein Y124A/S125A (ligand) HKCDITLQEIIKTLNSLTEQKTLCTELTVTDIFAASKNTTEKETFCRAATVLRQFYSHHEKDTRCLGATAQQFHRHKQLIRFLKRLDRNLWGLAGLNSCPVKEANQSTLENFLERLKTIMREKAAKCSS" endpoint_label="HUVEC, IL-6 secretion, EC50, pM" unit=pM quantitative_readout=200

Which HUVEC, IL-6 secretion, EC50, pM is reported for this binder? IL-4 mutein R121I (ligand) HKCDITLQEIIKTLNSLTEQKTLCTELTVTDIFAASKNTTEKETFCRAATVLRQFYSHHEKDTRCLGATAQQFHRHKQLIRFLKRLDRNLWGLAGLNSCPVKEANQSTLENFLERLKTIMIEKYSKCSS
40

Origin of values: patent US20030004314A1
